System: Staphylococcus aureus ATCC 6 538 Pen-Sensitive
method_notes: MIC, liquid medium dilution
Format: cell-based
assay_context: ATCC6, 24 h
Method: The method used was a dilution of a liquid medium where a series of tubes received the same quantity of a sterile nutritive media and increasing doses of the test compounds were placed therein. Then each tube was seeded with a bacterial strain and was incubated for 24 or 48 hours at 37° C. in an oven. The increasing inhibition was determined by transillumination to determine the minimum inhibiting concentration (MIC in μg/ml) and the results are reported in the following Tables.

| molecule | result_comparator | MIC [µg/mL] |
| --- | --- | --- |
| CO/N=C(/C(=O)NC1C(=O)N2C(C(=O)O)=C(C)CS[C@H]12)c1csc(N)n1 (some centres unmarked) [Example 15] | > | 100 |
| CO/N=C(/C(=O)NC1C(=O)N2C(C(=O)O)=C(CSC(C)=O)CSC12)c1csc(N)n1 (centres unmarked) [Example 17] | = | 20 |
| CO/N=C(\C(=O)NC1C(=O)N2C(C(=O)O)=C(C)CSC12)c1csc(N)n1 (centres unmarked) [Example 10] | = | 20 |
| CO/N=C(\C(=O)NC1C(=O)N2C(C(=O)O)=C(CSc3nnc(C)s3)CS[C@H]12)c1csc(N)n1 (some centres unmarked) [Example 2] | = | 1 |
| CO/N=C(\C(=O)NC1C(=O)N2C(C(=O)O)=C(CSC(C)=O)CSC12)c1csc(N)n1 (centres unmarked) [Example 6] | = | 2 |

* * *

System: Streptococcus faecalis 5 432
method_notes: MIC, liquid medium dilution
Type: cell-based
assay_context: Enterococcus faecalis, 5432, 24 h

| compound | target_system | result_comparator | MIC, µg/mL |
| --- | --- | --- | --- |
| CO/N=C(/C(=O)NC1C(=O)N2C(C(=O)O)=C(CSC(C)=O)CSC12)c1csc(N)n1 (stereo not drawn) | Streptococcus faecalis 5 432 | > | 100 |
| CO/N=C(\C(=O)NC1C(=O)N2C(C(=O)O)=C(C)CSC12)c1csc(N)n1 (stereo not drawn) | Streptococcus faecalis 5 432 | = | 20 |
| CO/N=C(\C(=O)NC1C(=O)N2C(C(=O)O)=C(CSc3nnc(C)s3)CS[C@H]12)c1csc(N)n1 (stereo partly drawn) | Streptococcus faecalis 5 432 | = | 1 |
| CO/N=C(\C(=O)NC1C(=O)N2C(C(=O)O)=C(CSc3nnnn3C)CS[C@H]12)c1csc(N)n1 (stereo partly drawn) | Streptococcus faecalis 5 432 | = | 2 |
| CO/N=C(/C(=O)NC1C(=O)N2C(C(=O)O)=C(C)CS[C@H]12)c1csc(N)n1 (stereo partly drawn) | Streptococcus faecalis 5 432 | > | 100 |
| CO/N=C(\C(=O)NC1C(=O)N2C(C(=O)O)=C(CSC(C)=O)CSC12)c1csc(N)n1 (stereo not drawn) | Streptococcus faecalis 5 432 | = | 5 |

* * *

System: Streptococcus faecalis 5 432
method_notes: MIC, liquid medium dilution
Format: cell-based
assay_context: Enterococcus faecalis, 5432, 48 h
readout_name: MIC

| molecule | readout_name | endpoint_result |
| --- | --- | --- |
| CO/N=C(/C(=O)NC1C(=O)N2C(C(=O)O)=C(CSC(C)=O)CSC12)c1csc(N)n1 (stereo not drawn) | MIC | > 100 µg/mL |
| CO/N=C(\C(=O)NC1C(=O)N2C(C(=O)O)=C(C)CSC12)c1csc(N)n1 (stereo not drawn) | MIC | > 40 µg/mL |
| CO/N=C(/C(=O)NC1C(=O)N2C(C(=O)O)=C(C)CS[C@H]12)c1csc(N)n1 (stereo partly drawn) | MIC | > 100 µg/mL |
